Would you mind telling me the reported Ki of each entry?
assaySystem: UniProtKB P06401
Sequence (P06401 whole entry): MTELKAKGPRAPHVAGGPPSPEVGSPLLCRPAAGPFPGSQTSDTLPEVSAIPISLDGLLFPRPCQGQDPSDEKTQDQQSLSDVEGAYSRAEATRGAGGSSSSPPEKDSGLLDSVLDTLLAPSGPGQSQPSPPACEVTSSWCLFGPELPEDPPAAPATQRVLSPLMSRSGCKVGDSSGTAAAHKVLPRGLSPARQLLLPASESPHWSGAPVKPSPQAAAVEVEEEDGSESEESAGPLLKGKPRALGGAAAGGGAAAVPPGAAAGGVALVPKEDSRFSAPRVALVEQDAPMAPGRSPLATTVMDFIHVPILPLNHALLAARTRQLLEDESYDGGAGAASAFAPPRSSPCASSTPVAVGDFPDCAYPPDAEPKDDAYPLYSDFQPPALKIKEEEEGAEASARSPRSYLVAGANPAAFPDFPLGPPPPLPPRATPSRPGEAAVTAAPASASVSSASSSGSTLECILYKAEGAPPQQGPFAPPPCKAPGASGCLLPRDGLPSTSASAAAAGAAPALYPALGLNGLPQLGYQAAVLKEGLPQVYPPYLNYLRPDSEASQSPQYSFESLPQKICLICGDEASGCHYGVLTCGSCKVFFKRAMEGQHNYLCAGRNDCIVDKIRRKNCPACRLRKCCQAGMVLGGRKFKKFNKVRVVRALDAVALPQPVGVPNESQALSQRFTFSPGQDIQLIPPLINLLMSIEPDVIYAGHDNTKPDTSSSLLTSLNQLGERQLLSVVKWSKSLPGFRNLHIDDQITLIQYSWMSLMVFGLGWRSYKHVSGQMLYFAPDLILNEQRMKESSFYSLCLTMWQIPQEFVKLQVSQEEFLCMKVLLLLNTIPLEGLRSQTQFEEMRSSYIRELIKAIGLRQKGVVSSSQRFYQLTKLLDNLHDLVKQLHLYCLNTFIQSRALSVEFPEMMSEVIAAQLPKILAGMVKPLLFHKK

Find Ki (UniProtKB P06401) for the entry CC1=CC(C)(C)Nc2cc3c(cc21)-c1ccc(Br)cc1C3Cc1ccccc1 (stereo not drawn)
> 10 µM

Find Ki (UniProtKB P06401) for the entry CC1=CC(C)(C)Nc2cc3c(c(F)c21)-c1ccc(F)cc1C3(C)O (stereo not drawn)
> 10 µM

Find Ki (UniProtKB P06401) for the entry CC1=CC(C)(C)Nc2cc3c(cc21)-c1ccc(Br)cc1C3C (stereo not drawn)
> 10 µM
